- Target Or Test System: Follistatin (Homo sapiens)
- Experiment: FST protein binding to printed compounds – biochemical, small-molecule microarray, 635/667 nm fluorescence, primary screen (AID 1132)
- Condition Set: 635 nm fluorescence, higher = more signal
Collected composite z-score values appear next to each entry.
Give a plain numeric answer without units written out.

Query: Name the recorded composite z-score for C=C(C(=O)CC[C@H](OC(=O)c1cccnc1)c1ccccc1OCCO)C(C)C .
Result: 1.42

Query: Data request, read-out composite z-score, for O=S(=O)(NCCCO)c1ccc(Br)cc1
Result: 1.17

Query: Which composite z-score is listed for COC(=O)c1c2oc(c1C(=O)OC)C(=O)N[C@H](Cc1ccccc1)Cn1nncc1C1(CCCCC1)NC(=O)N[C@H](CO)CC2 ?
Result: 0.373

Query: If you can, please state the reported composite z-score value of C=C[C@H](C)[C@H](OC(=O)Nc1ccc(OC)cc1)c1ccc(O)c2ccccc12 .
Result: 0.782

Query: Entry CO[C@H]1O[C@H](CO)[C@@H](OC(=O)Nc2ccc3c(c2)OCO3)[C@H](OC(=O)Nc2ccc3c(c2)OCO3)[C@H]1OC(=O)Nc1ccc2c(c1)OCO2 has what composite z-score?
Result: 1.23

Query: State the recorded composite z-score for this entry: CCCC[C@H]1OB(O)C[C@H]2C1=C(COc1ccccc1)C[C@H]1C(=O)N(Cc3ccccc3)C(=O)[C@H]12
Result: 0.512

Query: Given the molecule C=C[C@H](C)[C@H](O)c1ccc(OCCO)cc1 , what is its reported composite z-score?
Result: -0.74

Query: May I ask what composite z-score has been recorded for O=C1O[C@H](c2ccccc2)[C@H](c2ccccc2)N2[C@H]1[C@@H](C(=O)Nc1nc3ccccc3s1)[C@]1(C(=O)Nc3ccc(C#CC4=CCCCC4)cc31)[C@H]2c1ccc(OCCO)cc1 ?
Result: 1.12

Numbers sourced from PubChem BioAssay.
